# protocol details: LNP characterization (diameter, PDI, % EE)
# Format: physicochemical
# measurement conditions: LNP formulated with the named lipid; dynamic light scattering
property name: Diameter (nm)
The reply should contain only the number, in nm.

CCC/C=C\C/C=C\CCCC(=O)OCC(O)CN1CCN(CC(O)COC(=O)CCC/C=C\C/C=C\CCC)CCN(CC(O)COC(=O)CCC/C=C\C/C=C\CCC)CCN(CC(O)COC(=O)CCC/C=C\C/C=C\CCC)CCN(CC(O)COC(=O)CCC/C=C\C/C=C\CCC)CCN(CC(O)COC(=O)CCC/C=C\C/C=C\CCC)CC1 (centres unmarked) = 105

Field: next molecule
Per the record, CCC/C=C\CCCCCCC(=O)OCC(O)CN1CCN(CC(O)COC(=O)CCCCCC/C=C\CCC)CCN(CC(O)COC(=O)CCCCCC/C=C\CCC)CCN(CC(O)COC(=O)CCCCCC/C=C\CCC)CCN(CC(O)COC(=O)CCCCCC/C=C\CCC)CCN(CC(O)COC(=O)CCCCCC/C=C\CCC)CC1 (centres unmarked) has Diameter (nm) of 100.4

Where do these numbers come from? They come from patent US20250205158A1.
